FYI, the data here is from ChEMBL document CHEMBL2203134.

tested on: NCI-N87; assay: Antiproliferative activity against human NCI-N87 cells overexpressing Her2 after 48 hrs by BrdU labeling assay; format: functional, cell-based; conditions: NCI-N87, 48 h
measured-quantity: pIC50
Reminder that pIC50 means the negative base-10 logarithm of the concentration expressed in mol/L.

Prompt: Give the value of pIC50 reported for the following: CC[C@@H](C)Nc1cc(C(=O)NC2CC3CCC(C2)N3c2ccc(C(=O)C3CC3)cn2)c(C)cc1C(N)=O (stereo partly specified)
Response: 7.66

----------
system: Rattus norvegicus; experiment: Dose normalized AUC in rat at 2.5 mg/kg, iv; type: ADME, organism-based; parameters: dose 2.5 mg/kg, route intravenous; settings: in vivo
measured-quantity: AUC/dose (µM·kg·h/mg)
Just the number please, in µM·kg·h/mg, no unit attached.

Some compounds with recorded AUC/dose:
compound	AUC/dose, µM·kg·h/mg
CC(=O)c1ccc(N2C3CCC2CC(NC(=O)c2ccc(C(N)=O)c(NCC4CC4)c2)C3)nc1 (centres undefined)	0.5
CC[C@H](C)Nc1cc(C(=O)NC2CC3CCC(C2)N3c2ccc(C(=O)C3CC3)cn2)c(C)cc1C(N)=O (some centres undefined)	0.87

Prompt: State its AUC/dose: Cc1cc(C(N)=O)c(NCC2CC2)cc1C(=O)NC1CC2CCC(C1)N2c1ccc(C(=O)C2CC2)cn1 (centres undefined)
Response: 1.7

Prompt: Please look at this compound and report its AUC/dose: CCC(CC)Nc1cc(C(=O)NC2CC3CCC(C2)N3c2ccc(C(=O)C3CC3)cn2)c(C)cc1C(N)=O (centres undefined)
Response: 1.04
